Target: Akt2 (PKB beta) (human (printed as '(h)'), UniProt P31751 1-481, limits assumed)
Sequence (P31751 whole entry): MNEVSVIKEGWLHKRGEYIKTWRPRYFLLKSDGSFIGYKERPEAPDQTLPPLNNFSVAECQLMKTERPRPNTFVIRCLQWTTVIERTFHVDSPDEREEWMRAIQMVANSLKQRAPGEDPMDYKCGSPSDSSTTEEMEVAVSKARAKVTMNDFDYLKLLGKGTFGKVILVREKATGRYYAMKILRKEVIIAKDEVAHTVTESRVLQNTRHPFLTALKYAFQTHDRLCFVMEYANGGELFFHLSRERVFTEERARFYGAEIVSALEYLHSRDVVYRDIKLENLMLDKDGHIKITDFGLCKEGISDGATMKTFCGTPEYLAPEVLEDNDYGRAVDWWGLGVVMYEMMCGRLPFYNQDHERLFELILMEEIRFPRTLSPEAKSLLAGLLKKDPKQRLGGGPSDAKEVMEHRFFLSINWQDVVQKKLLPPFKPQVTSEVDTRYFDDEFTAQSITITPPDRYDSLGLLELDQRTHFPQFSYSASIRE
Experiment: cell-based or functional assay
Measured parameter: Inhibitory Activity (%), cell-free in vitro kinase assay, peptide 50 µM

RAAKAARAAK [RAAKAARAAK peptide] : 0

P. RSKAKNPLYR [RSKAKNPLYR peptide (β6 integrin derived)]
Q. RVKVKVVVVR [RVKVKVVVVR peptide]
R. RAKAKAAAAR [RAKAKAAAAR peptide]
Rank entries according to their Inhibitory Activity (%), cell-free in vitro kinase assay, peptide 50 µM, from the largest number down. Give the order by naming the labels one after another as requested.
Q, P, R
(Q: 89%, P: 3%, R: 0%)
